target: RBFOX1; experiment: pooled miR-30 sensor sort-seq; sequence = guide strand; conditions: shRNA
quantity-name: sensor-assay potency score (higher = more potent)
// keep it numeric: no unit symbol after the value

         ordered_residues  reported_measurement
0  TTACATAATATAGCACTCTGGA                -0.421
1  TATTTGTCATTACACGTGCTGT                  -1.1
2  TTGTCTGAGGTCCGGATCCCGG                 -1.44

Q: # lookup: sensor-assay potency score (higher = more potent) of AAACATTTGTCTGAGGTCCGGA
A: 0.142

Q: # lookup: sensor-assay potency score (higher = more potent) of TTTTATTTGTCATTACACGTGC
A: 0.123

Q: # lookup: sensor-assay potency score (higher = more potent) of TTATTCATTATCTAGCATCTGT
A: 0.299

Q: # lookup: sensor-assay potency score (higher = more potent) of TTGACCAAACATTTGTCTGAGG
A: -0.662

----------
target: TAF4; assay: pooled miR-30 sensor sort-seq; sequence = guide strand; settings: shRNA
The label depends only on sensor-assay potency score (higher = more potent): criterion met if it is at least -0.5, criterion not met if it is smaller.

         ordered_residues  assay_system        label_class
0  TTAAGTTCTCGGTATAACCTGC          TAF4      criterion met
1  TATTCTTGCACTTTCTTCTGAC          TAF4      criterion met
2  TTACCTATTTCTAATATTCTTC          TAF4  criterion not met
3  TACATCTGGATGTAATTCCGTT          TAF4      criterion met
4  TATTTTTCTGTGCAGCAGCTGC          TAF4  criterion not met

For the next question, use this sequence.
Q: Reported sensor-assay potency score (higher = more potent) at or above -0.5? TAGACATACACCTACATAGTAA
A: criterion not met

----------
molecular target: NUDT8; assay: pooled miR-30 sensor sort-seq; sequence = guide strand; settings: shRNA
Listing of entries alongside the reported sensor-assay potency score (higher = more potent).
// keep it numeric: no unit symbol after the value

>>> df
         ordered_residues  reported_measurement
0  ATCTTGGTCAGCCGGGTCGCAC                 -1.97

Q: # get_value(readout= sensor-assay potency score (higher = more potent), system= NUDT8) for TTGCGGATCATACACAGGCCGC
A: -1.79

Q: # get_value(readout= sensor-assay potency score (higher = more potent), system= NUDT8) for TGGTCAGCCGGGTCGCACTTGC
A: -1.47

Q: # get_value(readout= sensor-assay potency score (higher = more potent), system= NUDT8) for TACACCAGCAAGCACTGGCACC
A: -1.4

Q: # get_value(readout= sensor-assay potency score (higher = more potent), system= NUDT8) for TGTGCACCACATCTTGGTCAGC
A: -0.734

----------
molecular target: CNPPD1; experiment: pooled miR-30 sensor sort-seq; sequence = guide strand; details: shRNA
Classes by sensor-assay potency score (higher = more potent): low band (below -1), middle band (-1 to below -0.4), high band (-0.4 or more)

A selection of reference data follows.
         ordered_residues  label_class
0  TCTGTGTAGGTGTACCAGCCTC     low band
1  TTCAATGTACACCAGAGCCAGC     low band
2  TGAAAAGGGAACATTGCTGAGG    high band
3  TATTTCTTCTGGAGTCGGCGAA    high band
4  TTCGTCGTTGAAGACCTCCTCC    high band

Q: Into which category would you place ATGAGCTACGTATTTCTTCTGG ?
A: high band

Q: Into which category would you place TAGTCTGGGTTTCGGTGCCGGA ?
A: low band

Q: Into which category would you place TTCGACAGCAATGTCTGCCACC ?
A: middle band

Q: Into which category would you place TAGAGCCTCCTTCGGATCCGGG ?
A: low band

Q: Into which category would you place TTACTGGCCACCATCATGGAGA ?
A: middle band

----------
biological target: MIOX; test: pooled miR-30 sensor sort-seq; sequence = guide strand; settings: shRNA
The label depends only on sensor-assay potency score (higher = more potent): Condition met if it is at least -0.4, Condition not met if it is smaller.

A selection of reference data follows.
>>> df
         ordered_residues        label_class
0  TCGAACTTGTTGAACTCCCGCA      Condition met
1  TACATCCCGAGCTCTGTGCTGT  Condition not met
2  TTGGGGAAATCTACGTCCGGGT  Condition not met
3  TTGGTGTAGAGGTCGAACTTGT  Condition not met
4  TCTGGGTCCACATCAGGTCGGT      Condition met
5  TTGTTAAACTTCATCACCTGGT      Condition met
6  TCCATGACTGTCATTTTCTTGT  Condition not met
7  TGTGCTGTATCGAGGATCCTGG  Condition not met
8  TGCATGAGCTTGTAGGTGGTGA  Condition not met

For the next question, use this sequence.
Q: Reported sensor-assay potency score (higher = more potent) at or above -0.4? TTTTCTTGTAGGAGAAGCCCCC
A: Condition met

----------
Listing of entries alongside the reported sensor-assay potency score (higher = more potent).
biological target: SLC9A10; experiment: pooled miR-30 sensor sort-seq; sequence = guide strand; settings: shRNA
// keep it numeric: no unit symbol after the value

Illustrative cases are given below, each with its answer.
>>> df
         ordered_residues  assay_system  reported_measurement
0  TTCGTAACAGACAATCTTCTAC       SLC9A10                0.0134
1  TAGTCTTTGGTCAAAATCCATA       SLC9A10                 -1.27
2  TTTATGTTTAGGAACAAACTTT       SLC9A10                -0.563
3  TATCGGAAAATCTTTCTCCTTT       SLC9A10                -0.118

Q: # lookup: sensor-assay potency score (higher = more potent) of TTAAGCAGTTTATCTCTCCTAT
A: -0.373

Q: # lookup: sensor-assay potency score (higher = more potent) of TAACATTTCTTTCTTCTTGAAT
A: -0.801

Q: # lookup: sensor-assay potency score (higher = more potent) of TACAGTTGAACTTTGTCCCCAG
A: 0.193

Q: # lookup: sensor-assay potency score (higher = more potent) of TATGATTGACATCATCACCAAA
A: -0.934

----------
Listing of entries alongside the reported sensor-assay potency score (higher = more potent).
biological target: SRC; assay: pooled miR-30 sensor sort-seq; sequence = guide strand; conditions: shRNA

Illustrative cases are given below, each with its answer.
>>> print(df.to_string())
         ordered_residues  reported_measurement
0  TCCGACTTGATGGTGAAGCGGC                -0.784
1  TCATTGTCTTCAATGAGCCGAG                -0.463
2  TCTGTGTTGTTGACAATCTGGA                0.0722
3  TTTCGTGGTCTCACTTTCTCGC                 0.127

Q: # lookup: sensor-assay potency score (higher = more potent) of TCTCGCACGAGGAAGGTCCCTC
A: -0.579

----------
Listing of entries alongside the reported sensor-assay potency score (higher = more potent).
target: ADIPOR1; assay: pooled miR-30 sensor sort-seq; sequence = guide strand; conditions: shRNA
// keep it numeric: no unit symbol after the value

Illustrative cases are given below, each with its answer.
         ordered_residues  reported_measurement
0  TAATTAGAAGAGCAATCCCTGA                 -1.23
1  TTGCTCTTCTTCAGCTTTGGGT                -0.543
2  ATGAAGTACATATTTGGTCTGA                -0.176

Kindly review the next sequence as well.
Q: # lookup: sensor-assay potency score (higher = more potent) of ATAATTAGAAGAGCAATCCCTG
A: -1.25

----------
molecular target: ACAD10; experiment: pooled miR-30 sensor sort-seq; sequence = guide strand; details: shRNA
The label depends only on sensor-assay potency score (higher = more potent): condition met if it is at least -0.4, condition not met if it is smaller.

In [3]: df
Out[3]:
         ordered_residues    label_class
0  AAGCACAGCTTGTAGATCCTAG  condition met

Q: Reported sensor-assay potency score (higher = more potent) at or above -0.4? TAATCCTGAACTCCCTCTCTAT
A: condition not met

Q: Reported sensor-assay potency score (higher = more potent) at or above -0.4? TTCGGTGCCATACCTCACCAGC
A: condition not met

Q: Reported sensor-assay potency score (higher = more potent) at or above -0.4? TACAGCTCTCTGACAGGTGGAG
A: condition met

Q: Reported sensor-assay potency score (higher = more potent) at or above -0.4? TTCCAGTCCATACACCGTCAGA
A: condition not met

Q: Reported sensor-assay potency score (higher = more potent) at or above -0.4? TTCACAGAGATCAAGAACGTTA
A: condition met
